# Tested on: HCV replication
# measurement.protocol: HCV replicon assay (luciferase) in ET (Huh-lucubineo-ET) cell line
# Type: cell-based
# stated.conditions: Hepatitis C virus, tested at 5 μM; ET replicon cells; luciferase activity measured 48-72 hours later; relative to no compound control
observation.type: inhibition at 5 µM (%)
Numbers only here, please. The scale is %.

COC(=O)CCC1SC[C@@H](C(=O)Nc2nc(-c3ccc(C(=O)NC4CC4)cc3)cs2)N1C(=O)OCc1ccccc1 (stereo partly shown) tested on HCV replication gave inhibition at 5 µM: 99.8

CCCC(C)C(=O)N1C(C2CCOCC2)SC[C@H]1C(=O)Nc1nc(-c2ccc(C(=O)NC3CC3)cc2)cs1 (stereo in doubt) tested on HCV replication gave inhibition at 5 µM: 99.8

Cc1cccc2[nH]c(Cc3ccc(NC(=O)[C@@H]4CSC(c5ccncc5)N4C(=O)OCc4ccccc4)cc3)nc12 (stereo partly shown) tested on HCV replication gave inhibition at 5 µM: 14.2

O=C(NC1CC1)c1ccc(-c2csc(NC(=O)[C@@H]3CSC(c4ccc(CN5CCOCC5)cc4)N3C(=O)OCc3ccccc3)n2)cc1 (stereo partly shown) tested on HCV replication gave inhibition at 5 µM: 99.6

O=C(NC1CC1)c1ccc(-c2csc(NC(=O)[C@@H]3CSC(c4ncco4)N3C(=O)OCc3ccccc3)n2)cc1 (mixture of isomers) tested on HCV replication gave inhibition at 5 µM: 99.9

O=C(NC1CC1)c1ccc(-c2csc(NC(=O)[C@@H]3CSC(c4ccnc5ccccc45)N3C(=O)OCc3ccccc3)n2)cc1 (mixture of isomers) tested on HCV replication gave inhibition at 5 µM: 100

O=C(NCc1ccc(NC(=O)[C@@H]2CSC(c3ccncc3)N2C(=O)OCc2ccccc2)cc1)c1ccccc1 (stereo in doubt) tested on HCV replication gave inhibition at 5 µM: 2.1

NC(=O)c1cccc(NC(=O)[C@@H]2CSC(c3ccncc3)N2C(=O)OCc2ccccc2)c1 (stereo partly shown) tested on HCV replication gave inhibition at 5 µM: 25.7

O=C(NCCc1ccccc1)c1ccc(NC(=O)[C@@H]2CSC(c3ccncc3)N2C(=O)OCc2ccccc2)cc1 (stereo in doubt) tested on HCV replication gave inhibition at 5 µM: 86.5

COc1ccc(CNC(=O)Cc2cccc(NC(=O)[C@@H]3CSC(c4ccncc4)N3C(=O)OCc3ccccc3)c2)cc1 (stereo partly shown) tested on HCV replication gave inhibition at 5 µM: 97.5

O=C(NC1CC1)c1ccc(NC(=O)[C@@H]2CSC(C3CCOCC3)N2C(=O)OCc2ccccc2)cc1 (stereo partly shown) tested on HCV replication gave inhibition at 5 µM: 10

O=C(Nc1ccccc1)c1ccc(NC(=O)[C@@H]2CSC(c3ccncc3)N2C(=O)OCc2ccccc2)cc1 (stereo partly shown) tested on HCV replication gave inhibition at 5 µM: 3.9

O=C(NC1CC1)c1ccc(-c2csc(NC(=O)[C@@H]3CSC(C4CCOC4)N3C(=O)OCc3ccccc3)n2)cc1 (stereo partly shown) tested on HCV replication gave inhibition at 5 µM: 100

"CC(C)(C)OC(=O)N1[C@@H](c2ccccc2)CC[C@H]1C(=O)Nc1nc(-c2ccc(C(=O)NC3CC3)cc2)cs1" tested on HCV replication gave inhibition at 5 µM: 97.8

CC(=O)N1CCCC(C2SC[C@@H](C(=O)Nc3nc(-c4ccc(C(=O)NC5CC5)cc4)cs3)N2C(=O)OCc2ccccc2)C1 (mixture of isomers) tested on HCV replication gave inhibition at 5 µM: 100

O=C(NC1CC1)c1ccc(-c2csc(NC(=O)[C@@H]3CSC(C4CCNCC4)N3C(=O)OCc3ccccc3)n2)cc1 (mixture of isomers) tested on HCV replication gave inhibition at 5 µM: 100

O=C(Cc1cccc(NC(=O)[C@@H]2CSC(c3ccncc3)N2C(=O)OCc2ccccc2)c1)Nc1ccccc1 (stereo partly shown) tested on HCV replication gave inhibition at 5 µM: 80.8

O=C(NC1CC1)c1ccc(-c2csc(NC(=O)[C@@H]3CSC(C4CCCNC4)N3C(=O)OCc3ccccc3)n2)cc1 (mixture of isomers) tested on HCV replication gave inhibition at 5 µM: 100

O=C(NC1CC1)c1ccc(-c2csc(NC(=O)[C@@H]3CSC(c4ccncc4F)N3C(=O)OCc3ccccc3)n2)cc1 (mixture of isomers) tested on HCV replication gave inhibition at 5 µM: 100

CNC(=O)CCC1SC[C@@H](C(=O)Nc2nc(-c3ccc(C(=O)NC4CC4)cc3)cs2)N1C(=O)OCc1ccccc1 (stereo in doubt) tested on HCV replication gave inhibition at 5 µM: 100

CC(=O)c1ccc(C2SC[C@@H](C(=O)Nc3nc(-c4ccc(C(=O)NC5CC5)cc4)cs3)N2C(=O)OCc2ccccc2)cc1 (mixture of isomers) tested on HCV replication gave inhibition at 5 µM: 100

O=C(NC1CC1)c1ccc(-c2csc(NC(=O)[C@@H]3CSC(c4ccccc4F)N3C(=O)OCc3ccccc3)n2)cc1 (mixture of isomers) tested on HCV replication gave inhibition at 5 µM: 100

O=C(NC1CC1)c1ccc(-c2csc(NC(=O)[C@@H]3CSC(C4CCOCC4)N3C(=O)C3CC3)n2)cc1 (stereo partly shown) tested on HCV replication gave inhibition at 5 µM: 99.6

O=C(NC1CC1)c1ccc(-c2csc(NC(=O)[C@@H]3COC(c4ccccc4)N3C(=O)OCc3ccccc3)n2)cc1 (stereo partly shown) tested on HCV replication gave inhibition at 5 µM: 99.1

CC(C)(C)C(=O)N1C(C2CCOCC2)SC[C@H]1C(=O)Nc1nc(-c2ccc(C(=O)NC3CC3)cc2)cs1 (stereo partly shown) tested on HCV replication gave inhibition at 5 µM: 96.1

Ref: patent US20080181866A1
